# System: Colo205 cells
# experimentNotes: Analysis of Cell Proliferation, 3H thymidine incorporation
# Format: cell-based
# conditions: Homo sapiens, COLO 205, 96 h, 96 hours, read-out: IC50 cell proliferation after 96 hours

{"columns": ["molecule", "IC50"],
 "data": [
  ["CCC(=O)Nc1ccc(Sc2nc(Nc3cc(C)n[nH]3)cc(N3CCC(N4[C@H](C)CC[C@H]4C)CC3)n2)cc1", "≤ 50 nM"],
  ["CCC(=O)Nc1ccc(Sc2nc(Nc3cc(C)n[nH]3)cc(N3CCC4(CCN(C)C4)CC3)n2)cc1", "≤ 50 nM"],
  ["CCC(=O)Nc1ccc(Sc2nc(Nc3cc(C)n[nH]3)cc(N3CC4CN(C(C)C)CC4C3)n2)cc1 (stereo not shown)", "≤ 50 nM"],
  ["Cc1cnc(Nc2cc(N3CCC[C@H](N(C)C)C3)nc(Sc3ccc(NC(=O)C4CC4)cc3)n2)s1", "50 to 200 nM"]
]}

====

IC50 for assorted compounds
# Tested on: Colo205 cells
# experimentNotes: Analysis of Cell Proliferation, 3H thymidine incorporation
# Type: cell-based
# conditions: Homo sapiens, COLO 205, 96 h, 96 hours, read-out: IC50 cell proliferation after 96 hours
measuredQuantity: IC50

{"columns": ["compound", "measuredQuantity", "valueReported"],
 "data": [
  ["CCC(=O)Nc1ccc(Sc2nc(Nc3cc(C)n[nH]3)cc(N3CCC(C)(N4CCCC4)CC3)n2)cc1", "IC50", "0.05 to 0.2 µM"],
  ["CCC(=O)Nc1ccc(Sc2nc(Nc3cc(C4CC4)n[nH]3)cc(N3CCC(N4CCCC4)CC3)n2)cc1", "IC50", "≤ 0.05 µM"],
  ["CCC(=O)Nc1ccc(Sc2nc(Nc3cc(C)n[nH]3)cc(N3CCC(N4CCCC4(C)C)CC3)n2)cc1", "IC50", "0.05 to 0.2 µM"],
  ["Cc1cnc(Nc2cc(N3CC[C@H](N(C)C)C3)nc(Sc3ccc(NC(=O)C4CC4)cc3)n2)s1", "IC50", "0.05 to 0.2 µM"],
  ["CCC(=O)Nc1ccc(Sc2nc(Nc3cc(C)n[nH]3)cc(N3CC[C@@H](N(C)C)C3)n2)cc1", "IC50", "0.05 to 0.2 µM"],
  ["CCC(=O)Nc1ccc(Sc2nc(Nc3cc(C)[nH]n3)cc(N3CC[C@H](N(C)C)C3)n2)cc1", "IC50", "≤ 0.05 µM"],
  ["Cc1cc(Nc2cc(N3CCCC(F)(F)C3)nc(Sc3ccc(NC(=O)CC(F)(F)F)cc3)n2)[nH]n1", "IC50", "0.05 to 0.2 µM"],
  ["Cc1cc(Nc2cc(N3CCC4(CC3)CCN(C(C)C)C4)nc(Sc3ccc(NC(=O)C4CC4)cc3)n2)[nH]n1", "IC50", "0.05 to 0.2 µM"],
  ["CCC(=O)Nc1ccc(Sc2nc(Nc3cc(C)n[nH]3)cc(N3CCC(C#N)CC3)n2)cc1", "IC50", "0.05 to 0.2 µM"],
  ["CN[C@@H]1CCN(c2cc(Nc3ncc(C)s3)nc(Sc3ccc(NC(=O)C4CC4)cc3)n2)C1", "IC50", "≤ 0.05 µM"],
  ["CN[C@H]1CCN(c2cc(Nc3ncc(C)s3)nc(Sc3ccc(NC(=O)C4CC4)cc3)n2)C1", "IC50", "≤ 0.05 µM"],
  ["Cc1cc(Nc2cc(N3CCC(F)C3)nc(Sc3ccc(NC(=O)c4ccccc4Cl)cc3)n2)[nH]n1 (stereo not drawn)", "IC50", "0.05 to 0.2 µM"],
  ["CCC(=O)Nc1ccc(Sc2nc(Nc3cc(C)[nH]n3)cc(N3CCC4(CC3)OCCO4)n2)cc1", "IC50", "0.05 to 0.2 µM"],
  ["Cc1cnc(Nc2cc(N3CCC[C@@H](N(C)C)C3)nc(Sc3ccc(NC(=O)C4CC4)cc3)n2)s1", "IC50", "0.05 to 0.2 µM"],
  ["CCC(=O)Nc1ccc(Sc2nc(Nc3cc(C)n[nH]3)cc(N3CCC(C(C)(C)O)CC3)n2)cc1", "IC50", "≤ 0.05 µM"],
  ["CCC(=O)Nc1ccc(Sc2nc(Nc3ncc(C)s3)cc(N3CCC(N4CCCC4)CC3)n2)cc1", "IC50", "≤ 0.05 µM"],
  ["Cc1cc(Nc2cc(N3CCC4(CCN(C)C4)CC3)nc(Sc3ccc(NC(=O)C4CC4)cc3F)n2)[nH]n1", "IC50", "≤ 0.05 µM"],
  ["Cc1cc(Nc2cc(N3CCC4(CCN(C)C4)CC3)nc(Sc3ccc(NC(=O)C4CC4)c(F)c3)n2)[nH]n1", "IC50", "0.05 to 0.2 µM"]
]}
